biological target: HIF-2α HIS TAG-PASB Domain (Homo sapiens); construct: 100 nM HIF-2α HIS TAG-PASB Domain; test: HIF-2α Scintillation Proximity Assay (SPA); format: binding; conditions: read-out: Scintillation Proximity Assay IC50
Sequence (Q99814 240-350 limits assumed): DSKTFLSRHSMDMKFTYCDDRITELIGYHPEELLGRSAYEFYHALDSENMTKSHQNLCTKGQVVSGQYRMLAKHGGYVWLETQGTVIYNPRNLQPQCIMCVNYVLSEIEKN
Value kind: IC50

CS(=O)(=O)c1ccc(O[C@H]2C[C@@H](F)C2)c2c1[C@H](O)C(F)(F)[C@@H]2F ... < 50 nM

List reported IC50 for each of these molecules:
1. CS(=O)(=O)c1ccc(Oc2cc(F)cc(C#N)c2)c2c1[C@H](O)CC2(F)F
2. CC(=O)N1CCCC(Oc2ccc(S(=O)(=O)C(F)(F)F)c3c2CC(F)(F)C3O)C1 (stereo not shown)
3. N#Cc1cncc(Oc2ccc(S(=O)(=O)CF)c3c2[C@H](F)C(F)(F)[C@H]3O)c1
4. CCCCOc1ccc(S(=O)(=O)C(F)(F)F)c2c1CC(F)(F)[C@H]2O
5. O=S(=O)(c1ccc(-c2cccnc2)c2c1[C@H](O)C(F)(F)C2)C(F)(F)F
6. CS(=O)(=O)c1ccc(Oc2cc(F)cc(F)c2)c(C(F)F)c1C#N
7. O=S(=O)(c1ccc(CO)c2c1[C@H](O)C(F)(F)C2)C(F)(F)F

["> 1000 nM", "> 1000 nM", "> 1000 nM", "< 50 nM", "> 1000 nM", "50 to 249 nM", "> 1000 nM"]

# map each molecule to its IC50
1. OC1c2c(F)ccc(OCC(F)F)c2CC1(F)F (stereo not shown)
2. O=S(=O)(c1ccc(Oc2ccc(F)cc2)c2c1[C@H](O)C(F)(F)C2)C(F)(F)F
3. CC1(O)c2c(ccc(OCc3ccccc3)c2C#N)S(=O)(=O)C1(F)F (stereo not shown)
4. N=S1(=O)c2ccc(Oc3cc(F)cc(F)c3)c(Br)c2C(O)C1(F)F (stereo not shown) [Compound 378]
5. N#CCC1(COc2ccc(S(=O)(=O)C(F)(F)F)c3c2CC(F)(F)[C@H]3O)COC1

> 1000 nM
< 50 nM
> 1000 nM
50 to 249 nM
250 to 1000 nM

Give measured IC50 for every item shown.
1. Cc1cc(Oc2ccc(S(=O)(=O)C(F)F)c3c2CC(F)(F)[C@H]3O)ccc1F
2. CS(=O)(=NC#N)c1ccc(Oc2cc(F)cc(F)c2)c2c1C(O)C(F)(F)C2 (stereo not shown)
3. CS(=O)(=O)c1ccc(OC[C@H]2CC2(F)F)c2c1[C@H](O)C(F)(F)[C@@H]2F
4. N#Cc1c(S(=O)(=O)C(F)(F)F)ccc(Oc2cc(F)cc(Cl)c2)c1Cl

1. < 50 nM
2. < 50 nM
3. 50 to 249 nM
4. < 50 nM

----------
Kindly supply the reported EC50 values for the records listed here.
test system: 786-O-Hif-Luc cells; experiment: Luciferase Assay (HIF responsive elements reporter); conditions: read-out: Mean Luciferase EC50 (nM)

Some compounds with recorded EC50:
N#Cc1cc(F)cc(Oc2ccc(S(N)(=O)=O)c3c2CC(F)(F)[C@H]3O)c1 [Compound 252] ... 50 to 249 nM
N#Cc1cccc(Oc2ccc(S(=O)(=O)C(F)F)c3c2CC[C@H]3O)c1 [Compound 156] ... 250 to 1000 nM
CS(=O)(=O)c1ccc(Oc2cc(F)cc(C#N)c2)c2c1[C@@H](O)C(F)(F)C2 [Compound 226] ... > 1000 nM
CS(=O)(=O)c1ccc(Oc2cc(F)cc(C#N)c2)c2c1[C@H](O)[C@H](F)[C@@H]2F [Compound 289] ... < 50 nM
N#Cc1cc(F)cc(Oc2ccc(S(=O)(=O)C(F)(F)F)c3c2CC(F)(F)[C@H]3N)c1 [Compound 290] ... 50 to 249 nM

// for each compound in input: emit EC50
1. NS(=O)(=O)c1ccc(Oc2cc(F)cc(F)c2)c2c1[C@H](O)C(F)(F)C2 [Compound 256]
2. CNS(=O)(=O)c1ccc(Oc2cc(F)cc(F)c2)c2c1[C@H](O)C(F)(F)C2 [Compound 251]
3. C[C@H]1C[C@@H](O)c2c(S(=O)(=O)C(F)F)ccc(Oc3cc(F)cc(Cl)c3)c21 [Compound 7a]
4. N#Cc1cc(F)cc(Oc2ccc(S(=O)(=O)C(F)(F)F)c3c2CC[C@H]3O)c1 [Compound 57]

1. < 50 nM
2. 50 to 249 nM
3. 250 to 1000 nM
4. 50 to 249 nM

Look at each compound and report its EC50.
1. CNS(=O)(=O)c1ccc(Oc2cc(F)cc(C#N)c2)c2c1[C@H](O)C(F)(F)C2 [Compound 254]
2. CS(=O)(=O)c1ccc(Oc2cc(F)cc(C#N)c2)c2c1[C@H](O)[C@@H](F)C2 [Compound 271]
3. CS(=O)(=O)c1ccc(Oc2cc(F)cc(C#N)c2)c2c1[C@H](O)C(F)(F)C2 [Compound 163]

1: 50 to 249 nM; 2: 250 to 1000 nM; 3: < 50 nM

I need EC50 for every entry listed below, if you could help.
1. [2H]C1(O)c2c(ccc(Oc3cc(F)cc(Cl)c3)c2C(F)F)S(=O)(=O)C1(F)F (stereo not shown) [Compound 371]
2. CS(=O)(=O)c1ccc(Oc2cc(F)cc(C#N)c2)c2c1[C@H](N)C(F)(F)C2 [Compound 165]

1. < 50 nM
2. 50 to 249 nM

For each of the items listed, what is its EC50?
1. N#Cc1cc(Cl)cc(Oc2ccc(S(=O)(=O)CF)c3c2CC(F)(F)[C@H]3O)c1 [Compound 167]
2. CS(=O)(=O)c1ccc(Oc2cc(F)cc(C#N)c2)c2c1[C@H](O)[C@H](F)C2 [Compound 231]
3. [2H]C([2H])([2H])S(=O)(=O)c1ccc(Oc2cc(F)cc(C#N)c2)c2c1[C@]([2H])(O)C(F)(F)C2 [Compound 229]
4. CS(=O)(=O)c1ccc(Oc2cc(F)cc(C#N)c2)c2c1C(O)C(F)C2 (stereo not shown) [Compound 232]
5. N#Cc1cc(F)cc(Oc2ccc(S(N)(=O)=O)c3c2[C@@H](F)C(F)(F)[C@H]3O)c1 [Compound 338]

1. < 50 nM
2. < 50 nM
3. < 50 nM
4. < 50 nM
5. < 50 nM

Hi, could you look up EC50 for each item in my list?
1. N#Cc1cc(F)cc(Oc2ccc(S(=O)(=O)C(F)F)c3c2CC[C@H]3O)c1 [Compound 155]
2. CCS(=O)(=O)c1ccc(Oc2cc(F)cc(C#N)c2)c2c1[C@H](O)C(F)(F)C2 [Compound 206]
3. N#Cc1cncc(Oc2ccc(S(=O)(=O)C(F)(F)F)c3c2CC(F)(F)[C@H]3O)c1 [Compound 235]
4. O=S1(=O)c2ccc(Oc3cc(F)cc(Cl)c3)c(Br)c2[C@@H](O)C1(F)F [Compound 403]
5. CS(=O)(=O)c1ccc(Oc2cc(Cl)cc(C#N)c2)c2c1[C@H](O)C(F)(F)C2 [Compound 234]
6. O=S1(=O)c2ccc(Oc3cc(F)cc(Cl)c3)c(Br)c2[C@H](O)C1(F)F [Compound 405]
7. [2H][C@]1(O)c2c(S(C)(=O)=O)ccc(Oc3cc(F)cc(C#N)c3)c2CC1(F)F [Compound 247]

1: 50 to 249 nM; 2: 50 to 249 nM; 3: < 50 nM; 4: < 50 nM; 5: < 50 nM; 6: 50 to 249 nM; 7: < 50 nM

Fill in EC50 for each of the 2 compounds listed.
1. O=S1(=O)c2ccc(Oc3cc(F)cc(Cl)c3)c(C(F)(F)F)c2C(O)C1(F)F (stereo not shown) [Compound 360]
2. O=S(=O)(c1ccc(Oc2cc(F)cc(Cl)c2)c(Cl)c1CO)C(F)F [Compound 41]

50 to 249 nM
250 to 1000 nM

# return EC50 for each item in the list
1. N#Cc1cc(F)cc(Oc2ccc(S(N)(=O)=O)c3c2[C@H](F)C(F)(F)[C@H]3O)c1 [Compound 339]
2. CS(=O)(=O)c1ccc(Oc2cc(F)cc(C#N)c2)c2c1C(O)C(F)(F)C2 (stereo not shown) [Compound 223]
3. O=S(=O)(c1ccc(Oc2cc(F)cc(Cl)c2)c(C(F)F)c1)C(F)(F)F [Compound 124]

["250 to 1000 nM", "50 to 249 nM", "250 to 1000 nM"]

----------
biological target: HIF-2α HIS TAG-PASB Domain (Homo sapiens); construct: 100 nM HIF-2α HIS TAG-PASB Domain; assay: HIF-2α Scintillation Proximity Assay (SPA); assay type: binding; details: read-out: Scintillation Proximity Assay IC50
Value kind: IC50

Some solved cases for reference:
CCS(=O)(=O)c1ccc(Oc2cc(F)cc(Cl)c2)c2c1C(O)CC2 (stereo not shown) ... 0.25 to 1 µM
O=S(=O)(c1ccc(Oc2cc(F)cc(Cl)c2)c(Cl)c1CNCCF)C(F)(F)F ... > 1 µM
O=S(=O)(c1ccc(OCC2CC2)c2c1[C@H](O)C(F)(F)C2)C(F)(F)F ... < 0.05 µM
CC1(C)CCC(=O)[C@@H](c2ccc(S(=O)(=O)C(F)(F)F)c3c2CC(F)(F)[C@H]3O)C1 ... > 1 µM
Cc1c(Oc2cc(F)cc(C#N)c2)ccc(S(=O)(=O)C(F)(F)F)c1C#CCO ... > 1 µM
OC1c2c(I)cc(I)c(OCC(F)F)c2CC1(F)F (stereo not shown) ... > 1 µM
N#C[C@H]1C[C@H](Oc2ccc(S(=O)(=O)C(F)(F)F)c3c2CC(F)(F)[C@H]3O)C1 ... < 0.05 µM
COC(=O)COc1ccc(S(=O)(=O)C(F)(F)F)c2c1CC(F)(F)C2O (stereo not shown) ... > 1 µM
N#Cc1cccc(Oc2ccc3c(c2Br)[C@@H](O)C(F)(F)S3(=O)=O)c1 ... < 0.05 µM
CS(=O)(=O)c1ccc(O[C@H]2C[C@@H](C(N)=O)C2)c2c1[C@H](O)C(F)(F)[C@@H]2F ... > 1 µM

Batch lookup, IC50 per entry.
1. O=S(=O)(c1ccc(Oc2ccc(F)c(F)c2)c2c1C(O)CC2)C(F)(F)F (stereo not shown)
2. OC1c2c(-c3cn[nH]c3)ccc(OCC(F)F)c2CC1(F)F (stereo not shown)
3. CN(Cc1cccs1)c1ccc(S(=O)(=O)C(F)F)c2c1CC(F)(F)[C@H]2O
4. CC(=O)N1CCC(Oc2ccc(S(=O)(=O)C(F)(F)F)c3c2CC(F)(F)C3O)C1 (stereo not shown)
5. N#Cc1cc(F)cc(Nc2ccc(S(=O)(=O)C(F)(F)F)c3c2CC(F)(F)[C@H]3O)c1

1. 0.05 to 0.249 µM
2. > 1 µM
3. > 1 µM
4. > 1 µM
5. < 0.05 µM

Value sought for every listed molecule: IC50.
1. O=S1(=O)CC(O)c2c1ccc(Oc1cc(F)cc(F)c1)c2Br (stereo not shown)
2. O=C1c2c(ccc(Oc3cc(F)cc(Cl)c3)c2Br)S(=O)(=O)C1(F)F
3. O[C@H]1c2c(C(F)(F)F)ncc(O[C@H]3C[C@H](F)C3)c2C[C@H]1F

["> 1 µM", "> 1 µM", "< 0.05 µM"]

Each of the following entries comes with a recorded value; kindly state IC50 for each.
1. Cc1cc(Oc2cc(F)cc(C#N)c2)c2c(c1S(C)(=O)=O)C(O)C(F)(F)C2 (stereo not shown)
2. CS(=O)(=O)c1ccc(O[C@H]2C[C@](C)(C#N)C2)c2c1[C@H](O)C(F)(F)[C@@H]2F
3. O=S(=O)(c1ccc(OCCCO)c2c1C(O)C(F)(F)C2)C(F)(F)F (stereo not shown)
4. N#Cc1c(Oc2cc(F)cc(Cl)c2)ccc2c1CCS2(=O)=O
5. O=S(=O)(c1ccc(Oc2cncc(Cl)c2)c2c1[C@H](O)C(F)(F)C2)C(F)(F)F
6. Fc1cc(Cl)cc(Oc2ccc(C(F)(F)F)c(Cl)c2Br)c1
7. N#Cc1cncc(Oc2ccc3c(c2Br)[C@@H](O)C(F)(F)S3(=O)=O)c1
8. CC(C)Oc1ccc(S(=O)(=O)C(F)(F)F)c2c1CC(F)(F)[C@H]2O

1: 0.25 to 1 µM; 2: > 1 µM; 3: 0.25 to 1 µM; 4: > 1 µM; 5: < 0.05 µM; 6: > 1 µM; 7: 0.05 to 0.249 µM; 8: < 0.05 µM
